Target: T1, human CCR8 (human, UniProt P51685 1-355)
T1 construct: Native CCR8 on human PBMC (CCR8+ CD3+ or CCR8+ CD4+ lymphocytes); also called chemokine (C-C motif) receptor 8
T1 sequence (P51685 whole entry): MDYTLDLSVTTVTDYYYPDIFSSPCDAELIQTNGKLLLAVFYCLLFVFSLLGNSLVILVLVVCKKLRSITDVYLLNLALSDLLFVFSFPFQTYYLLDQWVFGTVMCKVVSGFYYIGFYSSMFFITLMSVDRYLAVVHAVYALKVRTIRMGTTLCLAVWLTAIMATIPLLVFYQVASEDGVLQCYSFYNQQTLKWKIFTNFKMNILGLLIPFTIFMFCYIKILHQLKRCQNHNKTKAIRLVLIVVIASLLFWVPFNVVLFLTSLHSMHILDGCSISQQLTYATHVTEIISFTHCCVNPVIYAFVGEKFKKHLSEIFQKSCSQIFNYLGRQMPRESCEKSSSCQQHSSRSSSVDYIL
Assay: flow blocking, PBMC CCR8+CD3+; competitor PE-L263G8
Each item that follows carries a reported % Blocking.
Quick reminder: number only, in %, skip the unit.

Reference set, count: 3
binder	units-of-measure	% Blocking
AB7 (antibody, V domains shown, Hybridoma monoclonal; also called antibody 7; clone 7) VH: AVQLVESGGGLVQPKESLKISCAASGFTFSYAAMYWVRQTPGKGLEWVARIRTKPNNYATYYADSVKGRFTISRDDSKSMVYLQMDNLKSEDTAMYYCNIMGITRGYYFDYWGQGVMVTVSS VL: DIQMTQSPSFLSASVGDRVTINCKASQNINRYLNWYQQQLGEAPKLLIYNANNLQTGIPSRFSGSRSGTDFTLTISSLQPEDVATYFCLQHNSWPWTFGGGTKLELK	%	0.82
AB10 (antibody, V domains shown, Hybridoma monoclonal; also called antibody 10; clone 10) VH: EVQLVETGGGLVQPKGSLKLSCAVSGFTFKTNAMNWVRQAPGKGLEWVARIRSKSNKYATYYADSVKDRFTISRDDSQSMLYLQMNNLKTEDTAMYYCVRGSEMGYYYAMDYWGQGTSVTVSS VL: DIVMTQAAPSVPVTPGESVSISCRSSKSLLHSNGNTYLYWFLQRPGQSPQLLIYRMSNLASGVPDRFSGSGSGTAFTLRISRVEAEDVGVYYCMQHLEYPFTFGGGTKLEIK	%	10.2
AB11 (antibody, V domains shown, Hybridoma monoclonal; also called antibody 11; clone 11) VH: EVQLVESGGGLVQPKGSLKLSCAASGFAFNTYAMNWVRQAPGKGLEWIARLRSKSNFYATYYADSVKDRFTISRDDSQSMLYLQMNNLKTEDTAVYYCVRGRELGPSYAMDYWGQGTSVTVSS VL: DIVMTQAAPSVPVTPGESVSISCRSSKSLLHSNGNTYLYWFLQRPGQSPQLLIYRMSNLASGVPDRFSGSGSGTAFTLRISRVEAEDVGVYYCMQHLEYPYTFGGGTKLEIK	%	36.6

Next binder, % Blocking to be filled in.
If you can, please state the reported % Blocking value of AB5 (antibody, V domains shown, Hybridoma monoclonal; Same VH/VL entries as AB6; also called antibody 5; clone 5) VH: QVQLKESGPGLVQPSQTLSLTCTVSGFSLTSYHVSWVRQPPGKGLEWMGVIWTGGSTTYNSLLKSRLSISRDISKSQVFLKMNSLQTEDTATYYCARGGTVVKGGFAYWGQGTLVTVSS VL: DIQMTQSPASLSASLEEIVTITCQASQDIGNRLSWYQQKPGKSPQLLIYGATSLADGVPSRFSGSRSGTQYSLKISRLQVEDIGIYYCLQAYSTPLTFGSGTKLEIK .
-14.2
